Taken from patent US20240270821A1.

// values below are reported EC50
target: hGIPR (Homo sapiens, UniProt P48546); assay: Functional cAMP activity in the presence of 1% HSA; format: cell-based; settings: read-out: cAMP Rel EC50, hGIPR
Sequence (P48546 22-466): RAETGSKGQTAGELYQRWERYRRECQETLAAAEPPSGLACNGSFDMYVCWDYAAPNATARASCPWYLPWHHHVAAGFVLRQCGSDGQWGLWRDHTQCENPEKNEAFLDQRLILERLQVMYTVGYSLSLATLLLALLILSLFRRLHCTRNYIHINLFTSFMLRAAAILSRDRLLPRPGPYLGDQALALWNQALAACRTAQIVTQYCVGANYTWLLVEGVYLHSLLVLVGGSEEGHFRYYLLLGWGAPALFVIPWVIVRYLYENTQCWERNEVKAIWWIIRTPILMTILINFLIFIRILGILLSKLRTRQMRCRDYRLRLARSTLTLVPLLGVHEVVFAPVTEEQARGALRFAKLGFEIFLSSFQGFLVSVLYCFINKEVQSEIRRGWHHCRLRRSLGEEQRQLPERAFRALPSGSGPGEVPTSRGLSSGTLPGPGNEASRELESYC
Starred links: 1 amine or outer side, 2 acyl side, 3 side chain; linkers in the order of their positions; H or OH if unused. Non-standard residues stand in square brackets, D forms with d. Groups on a side chain read outwards from the residue. *: point of attachment. C18 diacid = O=C(O)CCCCCCCCCCCCCCCCC(=O)*; αMePhe(2-F) = C[C@](N)(Cc1ccccc1F)C(=O)O; γGlu = O=C(O)[C@H](CCC(=O)[*:2])N[*:1]; αMe4Pal = C[C@](N)(Cc1ccncc1)C(=O)O; αMeY = C[C@](N)(Cc1ccc(O)cc1)C(=O)O; 4Pal = N[C@@H](Cc1ccncc1)C(=O)O; αMeL = CC(C)C[C@](C)(N)C(=O)O; αMeS = C[C@](N)(CO)C(=O)O; Orn = NCCC[C@H](N)C(=O)O; AEEA = NCCOCCOCC(=O)O; Aib = CC(C)(N)C(=O)O

{"substance": "H-Y[Aib]QGTFTSDFS[Orn][αMeL]LDKK([AEEA-AEEA-γGlu-C18 diacid])AQ[Aib]AFIEYLLE[Aib]GPSSGAPPPEGS-NH2 [Example 194]", "uom": "nM", "EC50": 19.7}
{"substance": "H-Y[Aib]QGT[αMePhe(2-F)]TSD[4Pal][αMeS]I[αMeL]LD[Orn]K([γGlu-γGlu-C18 diacid])AQ[αMe4Pal]EFI[dE][αMeY]LIEGGPSSGAPPPSGGGEEE-NH2 [Example 1219]", "uom": "nM", "EC50": 0.629}
{"substance": "H-Y[Aib]QGT[αMePhe(2-F)]TSD[4Pal]SI[αMeL]LD[Orn]K([γGlu-γGlu-C18 diacid])AQ[αMe4Pal][Orn]FI[dE][αMeY]LIEGGPSSGEPPPESE-NH2 [Example 685]", "uom": "nM", "EC50": 0.497}

* * *

target: hGcgR (Homo sapiens, UniProt P47871); experiment: Functional cAMP activation in the presence of 0.1% casein (no HSA); type: cell-based; conditions: in the presence of 0.1% casein (no HSA); geometric mean; read-out: Relative cAMP EC50, hGcgR;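 also: intracellular cAMP rise after 30 min at 37 °C, read by HTRF against a cAMP standard curve, scaled from buffer only (0%) to maximal control ligand response (100%)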
Sequence (P47871 26-477): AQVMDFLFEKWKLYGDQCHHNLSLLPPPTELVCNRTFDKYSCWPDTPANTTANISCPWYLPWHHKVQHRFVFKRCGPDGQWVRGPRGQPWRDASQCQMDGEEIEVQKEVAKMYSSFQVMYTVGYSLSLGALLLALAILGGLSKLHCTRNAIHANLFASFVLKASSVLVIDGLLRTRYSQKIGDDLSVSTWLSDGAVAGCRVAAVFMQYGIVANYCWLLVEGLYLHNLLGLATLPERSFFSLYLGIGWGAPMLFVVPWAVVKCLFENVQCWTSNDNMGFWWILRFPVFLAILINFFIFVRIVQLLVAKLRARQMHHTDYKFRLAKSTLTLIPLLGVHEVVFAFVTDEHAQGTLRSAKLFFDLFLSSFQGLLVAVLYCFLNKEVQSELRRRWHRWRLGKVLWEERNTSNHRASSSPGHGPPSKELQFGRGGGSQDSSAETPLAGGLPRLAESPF
pEC50: −log10 of the molar value. Starred links: 1 amine or outer side, 2 acyl side, 3 side chain; linkers in the order of their positions; H or OH if unused. Non-standard residues stand in square brackets, D forms with d. Groups on a side chain read outwards from the residue. No end group written: not given here. *: point of attachment. C20 diacid = O=C(O)CCCCCCCCCCCCCCCCCCC(=O)*; C18 diacid = O=C(O)CCCCCCCCCCCCCCCCC(=O)*; αMePhe(2-F) = C[C@](N)(Cc1ccccc1F)C(=O)O; γGlu = O=C(O)[C@H](CCC(=O)[*:2])N[*:1]; NMeY = CN[C@@H](Cc1ccc(O)cc1)C(=O)O; αMe4Pal = C[C@](N)(Cc1ccncc1)C(=O)O; αMeY = C[C@](N)(Cc1ccc(O)cc1)C(=O)O; αMeF = C[C@](N)(Cc1ccccc1)C(=O)O; 4Pal = N[C@@H](Cc1ccncc1)C(=O)O; αMeL = CC(C)C[C@](C)(N)C(=O)O; αMeS = C[C@](N)(CO)C(=O)O; Orn = NCCC[C@H](N)C(=O)O; AEEA = NCCOCCOCC(=O)O; Aib = CC(C)(N)C(=O)O

{"substance": "H-Y[Aib]QGT[αMePhe(2-F)]TSD[4Pal][αMeS]I[αMeL]LD[Orn]K([AEEA-γGlu-C18 diacid])AQ[αMe4Pal]EFI[dE][αMeY]LVEGGPSSGEPPPGGE-NH2 [Example 1155]", "pEC50": 8.74}
{"substance": "H-Y[Aib]QGT[αMePhe(2-F)]TSD[4Pal][αMeS]I[αMeL]LD[Orn]K([AEEA-γGlu-C18 diacid])AQ[αMe4Pal]EFI[dE][αMeY]LVEGGPSSGEPPPTGE-NH2 [Example 1153]", "pEC50": 8.57}
{"substance": "H-Y[Aib]QGTFTSDFSK[αMeL]LDKK([AEEA-AEEA-γGlu-C20 diacid])AQ[Aib]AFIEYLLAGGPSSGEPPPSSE-NH2 [Example 5]", "pEC50": 8.13}
{"substance": "H-Y[Aib]QGTFTSD[4Pal]SQ[αMeL]LD[Orn]K([γGlu-γGlu-C18 diacid])AQ[αMe4Pal]AFIEYLIA[Aib]GPSSGAPPPSGSEE-NH2 [Example 1091]", "pEC50": 8.33}
{"substance": "H-Y[Aib]QGTFTSDFS[Orn][αMeL]LDKK([AEEA-γGlu-C20 diacid])AQ[Aib]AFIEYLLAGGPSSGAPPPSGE-NH2 [Example 82]", "pEC50": 8.16}
{"substance": "H-Y[Aib]QGTFTSD[4Pal]SQ[αMeL]LDKK([AEEA-γGlu-γGlu-C18 diacid])AQ[αMe4Pal]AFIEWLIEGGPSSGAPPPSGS-NH2 [Example 871]", "pEC50": 7.90}
{"substance": "H-Y[Aib]QGT[αMePhe(2-F)]TSDYSKLLDKIAQK([AEEA-γGlu-C18 diacid])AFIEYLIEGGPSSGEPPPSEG-NH2 [Example 330]", "pEC50": 8.41}
{"substance": "H-Y[Aib]QGTFTSD[4Pal]SQ[αMeL]LDKK([γGlu-γGlu-C18 diacid])AQ[αMe4Pal]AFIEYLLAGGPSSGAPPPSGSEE-NH2 [Example 1036]", "pEC50": 8.69}
{"substance": "H-Y[Aib]QGTFTSDFS[Orn][αMeL]LDKK([AEEA-γGlu-C20 diacid])AQ[Aib]AFIEYLLAGGPSSGAPPPSEG-NH2 [Example 60]", "pEC50": 8.05}
{"substance": "H-Y[Aib]QGTFTSDFSK[αMeL]LDKK([AEEA-γGlu-C20 diacid])AQ[Aib]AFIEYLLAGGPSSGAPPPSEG-NH2 [Example 10]", "pEC50": 8.12}
{"substance": "Y[Aib]QGT[αMeF]TSD[4Pal][αMeS]I[αMeL]LD[Orn]K([AEEA-γGlu-C18 diacid])AQ[αMe4Pal]EFI[dE][αMeY]LIEGGPSSGEPPPSGGGE-NH2 [Example 1169]", "pEC50": 8.61}
{"substance": "H-[NMeY][Aib]QGT[αMeF]TSDYSILLDKQAAK([AEEA-AEEA-γGlu-C20 diacid])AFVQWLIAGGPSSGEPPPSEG-NH2 [Example 301]", "pEC50": 8.17}
